Source of measurements: patent EP1854806A1

# tested system: human SGLT1 (Homo sapiens, UniProt P13866)
# Construct: expressed in transfected cells; host or cells: CHO (Chinese hamster ovary) cells, stably transfected
# Sequence (P13866 whole entry): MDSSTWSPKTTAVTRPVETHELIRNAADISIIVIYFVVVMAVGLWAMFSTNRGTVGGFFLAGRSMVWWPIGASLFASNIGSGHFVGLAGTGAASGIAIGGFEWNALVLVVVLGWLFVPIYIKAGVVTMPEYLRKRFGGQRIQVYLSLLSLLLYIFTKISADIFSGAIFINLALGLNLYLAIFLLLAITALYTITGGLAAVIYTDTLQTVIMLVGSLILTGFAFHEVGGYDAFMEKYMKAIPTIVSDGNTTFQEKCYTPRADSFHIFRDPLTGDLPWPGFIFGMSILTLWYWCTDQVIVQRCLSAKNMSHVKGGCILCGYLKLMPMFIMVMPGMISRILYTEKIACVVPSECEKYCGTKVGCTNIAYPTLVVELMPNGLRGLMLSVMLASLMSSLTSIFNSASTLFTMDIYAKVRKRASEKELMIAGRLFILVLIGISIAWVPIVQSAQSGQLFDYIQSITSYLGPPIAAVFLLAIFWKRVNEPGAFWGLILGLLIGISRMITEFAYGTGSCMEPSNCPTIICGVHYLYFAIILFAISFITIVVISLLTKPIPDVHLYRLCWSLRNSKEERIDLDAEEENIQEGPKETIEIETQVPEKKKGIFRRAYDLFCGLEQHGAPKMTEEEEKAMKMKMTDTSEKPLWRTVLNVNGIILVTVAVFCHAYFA
# experiment: Inhibition of sodium-dependent D-glucose transport, [14C]AMG-uptake
# Type: cell-based
# experimental parameters: hSGLT1; apparent inhibitory constant, Dixon plot; read-out: Ki
measured parameter: Ki (nM)
Could you give me the number in nM? Just the number is fine.

Value lookup for Ki; key = C/C(=C\CC/C(C)=C/CS[C@@H]1O[C@H](CO)[C@@H](O)[C@H](O)[C@H]1O)CO [Thioglucoside 1] 100

====

# tested system: human SGLT2 (Homo sapiens)
# Construct: expressed in transfected cells; host or cells: CHO (Chinese hamster ovary) cells, stably transfected
# Sequence (P31639 1-672): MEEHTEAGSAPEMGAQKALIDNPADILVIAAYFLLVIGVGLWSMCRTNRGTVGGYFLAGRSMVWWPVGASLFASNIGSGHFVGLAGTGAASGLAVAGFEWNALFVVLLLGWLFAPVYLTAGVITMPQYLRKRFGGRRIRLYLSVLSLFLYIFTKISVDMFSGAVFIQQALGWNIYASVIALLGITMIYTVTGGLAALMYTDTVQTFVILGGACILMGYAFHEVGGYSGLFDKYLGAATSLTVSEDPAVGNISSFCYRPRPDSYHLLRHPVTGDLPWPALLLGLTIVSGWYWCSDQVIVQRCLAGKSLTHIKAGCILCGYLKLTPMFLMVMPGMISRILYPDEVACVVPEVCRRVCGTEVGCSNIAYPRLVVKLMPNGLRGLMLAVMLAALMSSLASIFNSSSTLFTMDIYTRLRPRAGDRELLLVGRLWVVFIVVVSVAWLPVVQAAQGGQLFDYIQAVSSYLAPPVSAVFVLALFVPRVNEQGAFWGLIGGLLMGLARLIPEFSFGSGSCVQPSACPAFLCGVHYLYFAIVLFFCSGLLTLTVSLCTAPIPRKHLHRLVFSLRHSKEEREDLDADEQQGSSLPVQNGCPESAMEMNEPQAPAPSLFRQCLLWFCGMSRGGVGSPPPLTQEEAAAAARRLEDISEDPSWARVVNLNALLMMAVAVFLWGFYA
# experiment: SGLT activity (membrane translocation) by fluorescence resonance energy transfer (FRET)
# Assay type: cell-based
# experimental parameters: hSGLT2 in CHO cells; 10 µm thioglucoside; normalized to non-transfected CHO cells; ratio higher than 1 = transported; n=16
# Procedure: Stable transfected Chinese hamster ovary (CHO) cells that express human SGLT1 or human SGLT2 were seeded at a concentration of […] and maintained in culture for 2 days to allow the cells to form a confluent monolayer culture. […] For fluorescence resonance energy transfer (FRET) analysis cells were seeded in flat-bottom, poly-D-lysine black-wall, clear bottom, 96-well plates (Becton Dickinson; Heidelberg, Germany). […]
measured parameter: fluorescence ratios
// keep it numeric: no unit symbol after the value

Previously resolved entries follow.
[[record]]
compound = "OC[C@H]1O[C@@H](Sc2ccccc2)[C@H](O)[C@@H](O)[C@@H]1O [Thioglucoside 3, Phenyl-1'-thio-β-D-glucopyranoside]"
measured_result = 1.21

[[record]]
compound = "OCc1ccccc1S[C@@H]1O[C@H](CO)[C@H](O)[C@H](O)[C@H]1O [Thioglucoside 6]"
measured_result = 1.32

[[record]]
compound = "Cc1ccc(S[C@@H]2O[C@H](CO)[C@@H](O)[C@H](O)[C@H]2O)cc1 [Thioglucoside 7, p-Tolyl-1'-thio-β-D-glucopyranoside]"
measured_result = 4.22


Please look up its fluorescence ratios: Cc1ccccc1S[C@@H]1O[C@H](CO)[C@@H](O)[C@H](O)[C@H]1O [Thioglucoside 4, o-Tolyl-1'-thio-β-D-glucopyranoside] 1.63
